# EXPERIMENT DESCRIPTION: Cmax in Sprague-Dawley rat at 20 mg/kg, po administered for 24 hrs by LC-MS/MS analysis
# Type: ADME, organism-based
# MEASUREMENT PARAMETERS: in vivo
PARAMETER MEASURED: Cmax (ng/mL)
Report only the number, with the unit ng/mL understood.

Give the measured Cmax of CC(=O)c1c(-c2nccc(NCCN3CCCC3)n2)[nH]c2ccccc12 .
168

---

# EXPERIMENT DESCRIPTION: Half life in Sprague-Dawley rat at 2 mg/kg, iv administered for 24 hrs by LC-MS/MS analysis
# Format: ADME, organism-based
# MEASUREMENT PARAMETERS: in vivo
PARAMETER MEASURED: half-life (h)
Report only the number, with the unit h understood.

CC(=O)c1c(-c2nc(NCCN3CCCC3)c3ccccc3n2)[nH]c2ccccc12 12.4

Give the measured half-life of CC(=O)c1c(-c2nccc(NCCN3CCCC3)n2)[nH]c2ccccc12 .
1.9

---

# EXPERIMENT DESCRIPTION: AUC (0 to t) in Sprague-Dawley rat at 5 mg/kg, po administered for 24 hrs by LC-MS/MS analysis
# Assay type: ADME, organism-based
# MEASUREMENT PARAMETERS: in vivo
PARAMETER MEASURED: AUC(0-t) at 24 h (ng·h/mL)
Report only the number, with the unit ng·h/mL understood.

Give the measured AUC(0-t) at 24 h of CC(=O)c1c(-c2nc(NCCN3CCCC3)c3ccccc3n2)[nH]c2ccccc12 .
574

---

# EXPERIMENT DESCRIPTION: Cytotoxicity against mouse 3T3-L1 cells assessed as reduction in cell viability incubated for 24 hrs by Sulforhodamine B assay
# Assay type: toxicity, cell-based
PARAMETER MEASURED: IC50 at 24 h (µM)
Report only the number, with the unit µM understood.

CC(=O)c1c(-c2nccc(NCCN3CCCC3)n2)[nH]c2ccccc12 27
CC(=O)c1c(-c2ncc(C)c(NCCN3CCCC3)n2)[nH]c2ccccc12 23.4
CC(=O)c1c(-c2nccc(NCCN(C)C)n2)[nH]c2ccccc12 28.4
CC(=O)c1c(-c2nc(NCCN(C)C)c3ccccc3n2)[nH]c2ccccc12 6.31

Give the measured IC50 at 24 h of CC(=O)c1c(-c2ncc(F)c(NCCN3CCCC3)n2)[nH]c2ccccc12 .
37.4

Okay, and CC(=O)c1c(-c2nc(C)cc(NCCN3CCCC3)n2)[nH]c2ccccc12 ?
18.1

---

# EXPERIMENT DESCRIPTION: Half life in Sprague-Dawley rat at 20 mg/kg, po administered for 24 hrs by LC-MS/MS analysis
# Type: ADME, organism-based
# MEASUREMENT PARAMETERS: in vivo
PARAMETER MEASURED: half-life (min)
Report only the number, with the unit min understood.

Give the measured half-life of CC(=O)c1c(-c2nccc(NCCN3CCCC3)n2)[nH]c2ccccc12 .
174

---

# EXPERIMENT DESCRIPTION: Oral bioavailability (0 to t) in Sprague-Dawley rat at 5 mg/kg administered for 24 hrs by LC-MS/MS analysis
# Assay type: ADME, organism-based
# MEASUREMENT PARAMETERS: in vivo
PARAMETER MEASURED: bioavailability (%)
Report only the number, with the unit % understood.

Give the measured bioavailability of CC(=O)c1c(-c2nc(NCCN3CCCC3)c3ccccc3n2)[nH]c2ccccc12 .
38.1

---

# EXPERIMENT DESCRIPTION: Apparent volume of distribution during terminal phase in Sprague-Dawley rat at 20 mg/kg, po administered for 24 hrs by LC-MS/MS analysis
# Assay type: ADME, organism-based
# MEASUREMENT PARAMETERS: in vivo, read-out: Vz/F
PARAMETER MEASURED: Vd/F (L/kg)
Report only the number, with the unit L/kg understood.

Give the measured Vd/F of CC(=O)c1c(-c2nccc(NCCN3CCCC3)n2)[nH]c2ccccc12 .
65.2

---

# EXPERIMENT DESCRIPTION: Apparent oral clearance in Sprague-Dawley rat at 5 mg/kg, po administered for 24 hrs by LC-MS/MS analysis
# Format: ADME, organism-based
# MEASUREMENT PARAMETERS: in vivo
PARAMETER MEASURED: CL/F (mL/min/kg)
Report only the number, with the unit mL/min/kg understood.

Give the measured CL/F of CC(=O)c1c(-c2nc(NCCN3CCCC3)c3ccccc3n2)[nH]c2ccccc12 .
137

---

# EXPERIMENT DESCRIPTION: Apparent volume of distribution during terminal phase in Sprague-Dawley rat at 5 mg/kg, po administered for 24 hrs by LC-MS/MS analysis
# Type: ADME, organism-based
# MEASUREMENT PARAMETERS: in vivo, read-out: Vz/F
PARAMETER MEASURED: Vd/F (L/kg)
Report only the number, with the unit L/kg understood.

Give the measured Vd/F of CC(=O)c1c(-c2nc(NCCN3CCCC3)c3ccccc3n2)[nH]c2ccccc12 .
77.8

---

# EXPERIMENT DESCRIPTION: AUC (0 to infinity) in Sprague-Dawley rat at 20 mg/kg, po administered for 24 hrs by LC-MS/MS analysis
# Type: ADME, organism-based
# MEASUREMENT PARAMETERS: in vivo
PARAMETER MEASURED: AUC(0-inf) (ng·h/mL)
Report only the number, with the unit ng·h/mL understood.

Give the measured AUC(0-inf) of CC(=O)c1c(-c2nccc(NCCN3CCCC3)n2)[nH]c2ccccc12 .
1470

---

# EXPERIMENT DESCRIPTION: Aqueous solubility of compound incubated for 24 hrs by HPLC analysis
# Assay type: physicochemical
# MEASUREMENT PARAMETERS: aqueous medium
PARAMETER MEASURED: solubility at 24 h (µg/mL)
Report only the number, with the unit µg/mL understood.

CC(=O)c1c(-c2nc(NCCN3CCCC3)c3ccccc3n2)[nH]c2ccccc12 8

We next turn to a different compound, shown below.
Give the measured solubility at 24 h of CC(=O)c1c(-c2nccc(NCCN3CCCC3)n2)[nH]c2ccccc12 .
161

---

Each entry below carries its recorded AUC(0-inf).
# EXPERIMENT DESCRIPTION: AUC (0 to infinity) in Sprague-Dawley rat at 2 mg/kg, iv administered for 24 hrs by LC-MS/MS analysis
# Assay type: ADME, organism-based
# MEASUREMENT PARAMETERS: in vivo
Report only the number, with the unit ng·h/mL understood.

CC(=O)c1c(-c2nc(NCCN3CCCC3)c3ccccc3n2)[nH]c2ccccc12 749

We next turn to a different compound, shown below.
Give the measured AUC(0-inf) of CC(=O)c1c(-c2nccc(NCCN3CCCC3)n2)[nH]c2ccccc12 .
225

---

Each entry below carries its recorded MRT last at 24 h.
# EXPERIMENT DESCRIPTION: MRT (0 to t) in Sprague-Dawley rat at 2 mg/kg, iv administered for 24 hrs by LC-MS/MS analysis
# Assay type: ADME, organism-based
# MEASUREMENT PARAMETERS: in vivo
Report only the number, with the unit h understood.

CC(=O)c1c(-c2nc(NCCN3CCCC3)c3ccccc3n2)[nH]c2ccccc12 14

We next turn to a different compound, shown below.
Give the measured MRT last at 24 h of CC(=O)c1c(-c2nccc(NCCN3CCCC3)n2)[nH]c2ccccc12 .
1.6

---

Each entry below carries its recorded selectivity ratio.
# EXPERIMENT DESCRIPTION: Therapeutic index, ratio of IC50 for cytotoxicity against mouse 3T3-L1 cells to EC50 for anti-adipogenic in mouse 3T3-L1 cells
# Format: toxicity, cell-based
# MEASUREMENT PARAMETERS: read-out: Ratio IC50/EC50
Just the number.

COMPOUND	RECORDED RESULT
CC(=O)c1c(-c2nc(C)c(C)c(NCCCN(C)C)n2)[nH]c2ccccc12	60

We next turn to a different compound, shown below.
Give the measured selectivity ratio of CC(=O)c1c(-c2ncc(C)c(NCCCN(C)C)n2)[nH]c2ccccc12 .
254

---

# EXPERIMENT DESCRIPTION: Cytotoxicity against mouse 3T3-L1 cells assessed as reduction in cell viability incubated for 24 hrs by Sulforhodamine B assay
# Type: toxicity, cell-based
In plain terms, low IC50 at 24 h, meaning strictly below 30 µM, gives 1, and everything else gives -1.

Some solved cases for reference:
COMPOUND	CLASS LABEL
CC(=O)c1c(-c2nc(NCCCN(C)C)c3ncn(C)c3n2)[nH]c2ccccc12	-1
CC(=O)c1c(-c2ncc(C)c(NCCCN(C)C)n2)[nH]c2ccccc12	-1

Is 30 µM strictly greater than the compound's reported IC50 at 24 h? compound: CC(=O)c1c(-c2nc(C)cc(NCCCN(C)C)n2)[nH]c2ccccc12
-1
